Tested on: HT-29
assay remarks: Antiproliferative activity against human HT-29 cells assessed as […] cell proliferation at 10 uM incubated for 48 hrs in presence of 15 uM of CDDP by WST-1 assay relative to control
Type: functional
Reported Activity values for a set of molecules
# number only, unit % dropped from output

CCN1CCN(C(=O)c2cc3cc(-c4ccc(S(C)(=O)=O)cc4)cnc3[nH]2)CC1
58

Give Activity for CS(=O)(=O)c1ccc(-c2cc(C(=O)NCc3ccccc3)n[nH]2)cc1 63

Give Activity for CC(C)S(=O)(=O)c1ccc(-c2cc(C(=O)N3CCC(c4ccccc4)CC3)n[nH]2)cc1 62

Give Activity for CCN(CC)c1ccc(CNC(=O)c2c[nH]c3ncc(-c4ccc(S(=O)(=O)C(C)C)cc4)cc23)cc1 58

Give Activity for CS(=O)(=O)c1ccc(-c2cnc3[nH]cc(C(=O)N4CCC(c5ccccc5)CC4)c3c2)cc1 44

Give Activity for CC(C)S(=O)(=O)c1ccc(-c2cnc3[nH]c(C(=O)NCc4ccccc4)cc3c2)cc1 61

Give Activity for CC(C)S(=O)(=O)c1ccc(-c2cnc3[nH]nc(C(=O)N4CCc5ccccc5C4)c3c2)cc1 61

Give Activity for CC(C)S(=O)(=O)c1ccc(-c2cnc3[nH]c(C(=O)Nc4ccc(N(C)C)cc4)cc3c2)cc1 68

Give Activity for CCN(CC)c1ccc(CNC(=O)c2cc3cc(-c4ccc(S(=O)(=O)C(C)C)cc4)cnc3[nH]2)cc1 57

* * *

Tested on: MOLT-4
assay remarks: Antiproliferative activity against human MOLT-4 cells assessed as […] cell proliferation at 10 uM incubated for 48 hrs by WST-1 assay relative to control
Type: functional
measured attribute: Activity (%)
# number only, unit % dropped from output

Some compounds with known Activity results, for comparison:
CS(=O)(=O)c1ccc(-c2cnc3[nH]cc(C(=O)NCc4ccccc4)c3c2)cc1
89
CC(C)S(=O)(=O)c1ccc(-c2cc(-c3nnc(-c4ccccc4)o3)n[nH]2)cc1
98
CCN1CCN(C(=O)c2c[nH]c3ncc(-c4ccc(S(C)(=O)=O)cc4)cc23)CC1
95

Give Activity for CCN1CCN(Cc2c[nH]c3ncc(-c4ccc(S(=O)(=O)C(C)C)cc4)cc23)CC1 97

Give Activity for CCN1CCN(C2CCN(C(=O)c3c[nH]c4ncc(-c5ccc(S(=O)(=O)C(C)C)cc5)cc34)CC2)CC1 100

Give Activity for CC(C)S(=O)(=O)c1ccc(-c2cc(C(=O)NCc3ccccc3)n[nH]2)cc1 98

Give Activity for CC(C)S(=O)(=O)c1ccc(-c2cc(C(=O)N3CCc4ccccc4C3)n[nH]2)cc1 82

Give Activity for CCN1CCN(C(=O)c2c[nH]c3ncc(-c4ccc(S(=O)(=O)C(C)C)cc4)cc23)CC1 100

Give Activity for CS(=O)(=O)c1ccc(-c2cc(C(=O)NCc3ccccc3)n[nH]2)cc1 95

Give Activity for CCN1CCN(C(=O)c2cc3cc(-c4ccc(S(C)(=O)=O)cc4)cnc3[nH]2)CC1 90

Give Activity for CC(C)S(=O)(=O)c1ccc(-c2cc(C(=O)N3CCC(c4ccccc4)CC3)n[nH]2)cc1 84

Give Activity for CC(C)S(=O)(=O)c1ccc(-c2cnc3[nH]cc(C(=O)Nc4ccc(N(C)C)cc4)c3c2)cc1 96

* * *

Tested on: A549
assay remarks: Antiproliferative activity against human A549 cells assessed as […] cell proliferation at 10 uM incubated for 48 hrs in presence of 15 uM of CDDP by WST-1 assay relative to control
Format: functional
measured attribute: Activity (%)
# number only, unit % dropped from output

CC(C)S(=O)(=O)c1ccc(-c2cnc3[nH]cc(C(=O)NCc4ccccc4)c3c2)cc1
65
CC(C)S(=O)(=O)c1ccc(-c2cnc3[nH]cc(C(=O)N4CCc5ccccc5C4)c3c2)cc1
66
CCN(CC)c1ccc(CNC(=O)c2c[nH]c3ncc(-c4ccc(S(C)(=O)=O)cc4)cc23)cc1
59
CS(=O)(=O)c1ccc(-c2cnc(N)c(C(=O)Nc3ccccc3)n2)cc1
16
CCN1CCN(C(=O)c2c[nH]c3ncc(-c4ccc(S(C)(=O)=O)cc4)cc23)CC1
70
CCN1CCN(C(=O)c2cc(-c3ccc(S(C)(=O)=O)cc3)[nH]n2)CC1
65

Give Activity for CC(C)S(=O)(=O)c1ccc(-c2cc(C(=O)N3CCc4ccccc4C3)n[nH]2)cc1 57

Give Activity for CS(=O)(=O)c1ccc(-c2cnc3[nH]cc(C(=O)NCc4ccccc4)c3c2)cc1 64

Give Activity for CC(C)S(=O)(=O)c1ccc(-c2cnc3[nH]nc(C(=O)N4CCC(c5ccccc5)CC4)c3c2)cc1 49

* * *

Reported Activity values for a set of molecules
Test system: HeLa
assay remarks: Antiproliferative activity against human HeLa cells assessed as […] cell proliferation at 10 uM incubated for 48 hrs in presence of 15 uM of CDDP by WST-1 assay relative to control
Assay type: functional
# number only, unit % dropped from output

CC(C)S(=O)(=O)c1ccc(-c2cnc3[nH]nc(C(=O)NCc4ccccc4)c3c2)cc1
60
CC(C)S(=O)(=O)c1ccc(-c2cnc3[nH]cc(C(=O)N4CCc5ccccc5C4)c3c2)cc1
66
CC(C)S(=O)(=O)c1ccc(-c2cnc3[nH]c(C(=O)N4CCc5ccccc5C4)cc3c2)cc1
57

Give Activity for CC(C)S(=O)(=O)c1ccc(-c2cnc3[nH]cc(CN4CCC(c5ccccc5)CC4)c3c2)cc1 46

Give Activity for CS(=O)(=O)c1ccc(-c2cnc3[nH]c(C(=O)N4CCC(c5ccccc5)CC4)cc3c2)cc1 66

* * *

Test system: MOLT-4
assay remarks: Antiproliferative activity against human MOLT-4 cells assessed as […] cell proliferation at 10 uM incubated for 48 hrs in presence of 2 uM of CDDP by WST-1 assay relative to control
Type: functional
measured attribute: Activity (%)
# number only, unit % dropped from output

Some compounds with known Activity results, for comparison:
CC(C)S(=O)(=O)c1ccc(-c2cnc3[nH]c(C(=O)N4CCc5ccccc5C4)cc3c2)cc1
57
CC(C)S(=O)(=O)c1ccc(-c2cc(-c3nc(-c4ccccc4)no3)n[nH]2)cc1
62
CS(=O)(=O)c1ccc(-c2cnc3[nH]cc(C(=O)N4CCC(c5ccccc5)CC4)c3c2)cc1
44
CC(C)S(=O)(=O)c1ccc(-c2cnc3[nH]nc(C(=O)N4CCC(c5ccccc5)CC4)c3c2)cc1
49
CS(=O)(=O)c1ccc(-c2cnc3[nH]nc(C(=O)N4CCC(c5ccccc5)CC4)c3c2)cc1
71
CC(C)S(=O)(=O)c1ccc(-c2cnc3[nH]cc(C(=O)Nc4ccc(N(C)C)cc4)c3c2)cc1
59
CC(C)S(=O)(=O)c1ccc(-c2cnc3[nH]cc(CN4CCC(c5ccccc5)CC4)c3c2)cc1
46
CCN1CCN(C(=O)c2cc3cc(-c4ccc(S(C)(=O)=O)cc4)cnc3[nH]2)CC1
58

Give Activity for CC(C)S(=O)(=O)c1ccc(-c2cc(C(=O)N3CCC(c4ccccc4)CC3)n[nH]2)cc1 62

Give Activity for CS(=O)(=O)c1ccc(-c2cnc3[nH]c(C(=O)N4CCC(c5ccccc5)CC4)cc3c2)cc1 66

Give Activity for CCN1CCN(C(=O)c2cc(-c3ccc(S(C)(=O)=O)cc3)[nH]n2)CC1 65

Give Activity for CCN1CCN(C(=O)c2c[nH]c3ncc(-c4ccc(S(C)(=O)=O)cc4)cc23)CC1 70

Give Activity for CC(C)S(=O)(=O)c1ccc(-c2cnc3[nH]nc(C(=O)NCc4ccccc4)c3c2)cc1 60

Give Activity for CC(C)S(=O)(=O)c1ccc(-c2cc(C(=O)N3CCc4ccccc4C3)n[nH]2)cc1 57

Give Activity for CS(=O)(=O)c1ccc(-c2cnc3[nH]c(C(=O)NCc4ccccc4)cc3c2)cc1 72

Give Activity for CC(C)S(=O)(=O)c1ccc(-c2cc(C(=O)Nc3ccccc3)n[nH]2)cc1 70

* * *

Tested on: A2780
assay remarks: Antiproliferative activity against human A2780 cells assessed as […] cell proliferation at 10 uM incubated for 48 hrs in presence of 2 uM of CDDP by WST-1 assay relative to control
Format: functional
# if measured Activity < 60%: label 1  # else: label 0

Examples from the recorded data:
CCN(CC)c1ccc(CNC(=O)c2c[nH]c3ncc(-c4ccc(S(=O)(=O)C(C)C)cc4)cc23)cc1
label 1
CC(C)S(=O)(=O)c1ccc(-c2cnc3[nH]c(C(=O)Nc4ccccc4)cc3c2)cc1
label 0
CC(C)S(=O)(=O)c1ccc(-c2cc(C(=O)Nc3ccc(N(C)C)cc3)n[nH]2)cc1
label 0
CS(=O)(=O)c1ccc(-c2cnc3[nH]cc(C(=O)NCc4ccccc4)c3c2)cc1
label 0
CS(=O)(=O)c1ccc(-c2cc(C(=O)NCc3ccccc3)n[nH]2)cc1
label 0
CCN1CCN(C2CCN(C(=O)c3cc4cc(-c5ccc(S(C)(=O)=O)cc5)cnc4[nH]3)CC2)CC1
label 0

Determine if CS(=O)(=O)c1ccc(-c2cnc3[nH]cc(C(=O)N4CCC(c5ccccc5)CC4)c3c2)cc1 shows Activity strictly lower than 60%. label 1

Determine if CS(=O)(=O)c1ccc(-c2cnc3[nH]c(C(=O)NCc4ccccc4)cc3c2)cc1 shows Activity strictly lower than 60%. label 0

Determine if CC(C)S(=O)(=O)c1ccc(-c2cnc3[nH]cc(CN4CCC(c5ccccc5)CC4)c3c2)cc1 shows Activity strictly lower than 60%. label 1

Determine if CC(C)S(=O)(=O)c1ccc(-c2cnc3[nH]c(C(=O)N4CCC(c5ccccc5)CC4)cc3c2)cc1 shows Activity strictly lower than 60%. label 0

Determine if CC(C)S(=O)(=O)c1ccc(-c2cnc3[nH]cc(C(=O)N4CCC(c5ccccc5)CC4)c3c2)cc1 shows Activity strictly lower than 60%. label 1

Determine if CC(C)S(=O)(=O)c1ccc(-c2cc(C(=O)Nc3ccccc3)n[nH]2)cc1 shows Activity strictly lower than 60%. label 0

Determine if CCN1CCN(C(=O)c2cc3cc(-c4ccc(S(C)(=O)=O)cc4)cnc3[nH]2)CC1 shows Activity strictly lower than 60%. label 1

Determine if CS(=O)(=O)c1ccc(-c2cnc3[nH]nc(C(=O)N4CCC(c5ccccc5)CC4)c3c2)cc1 shows Activity strictly lower than 60%. label 0

Determine if CC(C)S(=O)(=O)c1ccc(-c2cc(C(=O)NCc3ccccc3)n[nH]2)cc1 shows Activity strictly lower than 60%. label 0

Determine if CCN1CCN(C(=O)c2c[nH]c3ncc(-c4ccc(S(C)(=O)=O)cc4)cc23)CC1 shows Activity strictly lower than 60%. label 0

Determine if CC(C)S(=O)(=O)c1ccc(-c2cnc3[nH]cc(C(=O)NCc4ccccc4)c3c2)cc1 shows Activity strictly lower than 60%. label 0

Determine if CS(=O)(=O)c1ccc(-c2cnc(N)c(C(=O)Nc3ccccc3)n2)cc1 shows Activity strictly lower than 60%. label 1

Determine if CC(C)S(=O)(=O)c1ccc(-c2cc(-c3nnc(-c4ccccc4)o3)n[nH]2)cc1 shows Activity strictly lower than 60%. label 0

Determine if CS(=O)(=O)c1ccc(-c2cnc3[nH]c(C(=O)N4CCC(c5ccccc5)CC4)cc3c2)cc1 shows Activity strictly lower than 60%. label 0
